Assay type: physicochemical
For each of the compounds below, state its CMC (Na^+ 0.15 M).
Numbers only, in mM.

Study these solved cases before continuing.
compound="C[C@H](C1CC1C(=O)O)[C@H]1CC[C@H]2[C@@H]3[C@@H](O)C[C@@H]4C[C@H](O)CC[C@]4(C)[C@H]3CC[C@]12C (single isomer, unassigned) [Isom. A, 22,23-methanate-ursodeoxycholic acid]" readout="CMC (Na^+ 0.15 M)" value_unit=mM readout_value=16
compound="C[C@H](C1CC1C(=O)O)[C@H]1CC[C@H]2[C@@H]3[C@@H](O)C[C@@H]4C[C@H](O)CC[C@]4(C)[C@H]3CC[C@]12C (single isomer, unassigned) [Isom. B, 22,23-methanate-ursodeoxycholic acid]" readout="CMC (Na^+ 0.15 M)" value_unit=mM readout_value=12
compound="C[C@H](CCC(=O)O)[C@H]1CC[C@H]2[C@@H]3[C@@H](O)C[C@H]4C[C@H](O)CC[C@]4(C)[C@H]3CC[C@]12C [UDCA, 3α, 7β-dihydroxy-5α-cholan-24-oic acid, reference compound]" readout="CMC (Na^+ 0.15 M)" value_unit=mM readout_value=11
compound="C[C@H](C1CC1C(=O)O)[C@H]1CC[C@H]2[C@@H]3[C@@H](O)C[C@@H]4C[C@H](O)CC[C@]4(C)[C@H]3CC[C@]12C (single isomer, unassigned) [Isom. C, 22,23-methanate-ursodeoxycholic acid]" readout="CMC (Na^+ 0.15 M)" value_unit=mM readout_value=8

Let us move to another entry and its CMC (Na^+ 0.15 M).
For C[C@H](C1CC1C(=O)O)[C@H]1CC[C@H]2[C@@H]3[C@@H](O)C[C@@H]4C[C@H](O)CC[C@]4(C)[C@H]3CC[C@]12C (single isomer, unassigned) [Isom. D, 22,23-methanate-ursodeoxycholic acid] , what is its reported CMC (Na^+ 0.15 M)?
6
